Reference for the values: ChEMBL document CHEMBL3612062

System: SW480
Experiment: Cytotoxicity against human SW480 cells after 48 hrs by MTT assay
Format: functional, cell-based
Settings: SW480, 48 h
valueKind: IC50

> print(dat)
                                   molecule  experimentalresult
1  Oc1ccc(N[C@H]2CC[C@]3(CC2)OO[C@]2(O3)C3CC4CC(C3)CC2C4)c2cccnc12 (mixture of isomers)             > 50 µM
2  O=C(O)[C@H]1CC[C@@]2(CC1)OC[C@]1(OO2)C2CC3CC(C2)CC1C3            > 100 µM
3  O=C(O)[C@H]1CC[C@]2(CC1)OO[C@]1(O2)C2CC3CC(C2)CC1C3            > 100 µM

Value lookup for IC50; key = O=C(NC1CCC2(CC1)OOC1(OO2)C2CC3CC(C2)CC1C3)c1ccc(O)c(O)c1 (stereo unspecified)
> 50 µM

Recorded IC50 for `Nc1ccc(O)c2ncccc12` , please?
> 50 µM

Using the record for O=C(NO)[C@H]1CC[C@]2(CC1)OO[C@]1(O2)C2CC3CC(C2)CC1C3 (mixture of isomers) , report its IC50.
> 50 µM
